Entries annotated with measured SPOT peptide array binding signal intensity
# target.or.test.system: ScMyo3
# assay.comment: SPOT peptide array binding signal intensity (averaged, normalized) (arbitrary units (background-subtracted, floor 0; scale differs between SH3 domains)); higher = stronger binding of the SH3 domain to the peptide
property.measured: SPOT peptide array binding signal intensity

binder: LSKRLPLRFPEHTSS
endpoint.result: ≤ 0
--
binder: NQARKPFLLPATELS
endpoint.result: ≤ 0
--
binder: FPGKKSPRLPHRNKK
endpoint.result: ≤ 0
--
binder: GTIARPLFLVVLFFI
endpoint.result: ≤ 0
--
binder: RTIRKLPLMSLSEYF
endpoint.result: 2.5
--
binder: PELAPKREAPKPPAN
endpoint.result: 1310
--
binder: DFTLPPPPPPPGLDE
endpoint.result: 2030
--
binder: RSLRKRPTSPSISGS
endpoint.result: 11
--
binder: QLMKNLPKIPLLNDI
endpoint.result: 25
--
binder: GQYRRTIVIPRRFFT
endpoint.result: 12.5
--
binder: RRTRLRPPTPLSQLL
endpoint.result: ≤ 0
--
binder: VRVKKRPLIRPLNSS
endpoint.result: 3
--
binder: ATKSASPTLPTRRSR
endpoint.result: 1.5
--
binder: GPPPPLPPPLFPSSS
endpoint.result: 1490
--
binder: MPAPPPPPPPPPGAF
endpoint.result: 1010
--
binder: KFIPSRPAPKPPSSA
endpoint.result: 2740
--
binder: NRARYLPQNPDIIAG
endpoint.result: ≤ 0
--
binder: FLIKFTPKFPQSIDH
endpoint.result: 15.5
--
binder: NNFYRPLLRSVLVLL
endpoint.result: ≤ 0

Data origin: the supplement of paper PMC4466140
